The entries below come with measured growth inhibition values attached.
# Measurement Notes: NCI Yeast Anticancer Drug Screen. Data for the rad14 strain (AID 159);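 further: 0% = growth of vehicle-treated control cultures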
# Measurement Setup: S. cerevisiae rad14 strain growth inhibition; at 33.0 µM; hits give high values
This is part of a sample that, as a whole, favours compounds with a hit. Of some 79,000 tested, about 15% had one in any assay.

Compound: CCOC(=O)c1[nH]c2cccc3c2c1CC(Br)C3=O (stereo not given)
growth inhibition, %: 4
//
Compound: COc1ccc(/C(=N/O)c2ccccc2C2=Nc3ccccc3C(NCc3ccccc3)O2)cc1C (stereo not given)
growth inhibition, %: 21
//
Compound: Cc1nc2ccc(Br)cc2c(=O)n1-c1ccc(NC2OCC(O)C(O)C2O)cc1 (stereo not given)
growth inhibition, %: 32
//
Compound: c1cncc(C(Nc2cccc3cccnc23)Nc2cccc3cccnc23)c1
growth inhibition, %: 25
//
Compound: Cc1ccc(S(=O)(=O)N/N=C/c2c(O)ccc3ccccc23)cc1
growth inhibition, %: 73
